Target: TRH receptor binding sites in pituitary (Rattus norvegicus, UniProt Q01717)
Construct: from tissue; host or cells: rat anterior pituitary membrane pellet (homogenate, 39000 g)
Sequence (Q01717 whole entry): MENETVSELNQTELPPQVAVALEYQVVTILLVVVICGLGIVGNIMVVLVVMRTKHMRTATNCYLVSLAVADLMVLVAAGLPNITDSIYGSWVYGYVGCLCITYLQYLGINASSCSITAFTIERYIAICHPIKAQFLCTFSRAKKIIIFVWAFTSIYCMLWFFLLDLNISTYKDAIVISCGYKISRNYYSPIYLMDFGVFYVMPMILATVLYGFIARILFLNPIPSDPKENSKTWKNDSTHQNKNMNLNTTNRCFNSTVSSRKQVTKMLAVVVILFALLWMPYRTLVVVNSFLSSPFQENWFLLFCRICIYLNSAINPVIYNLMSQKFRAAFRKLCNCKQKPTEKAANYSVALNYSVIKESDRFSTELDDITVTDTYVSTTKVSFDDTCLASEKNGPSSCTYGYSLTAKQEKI
Experiment: Receptor binding assay, [3H][3-Me-His2]-TRH competition, anterior pituitary homogenate
Parameters: species or system rat (Sprague-Dawley)
Conditions: rat anterior pituitary membranes; [3H][3-Me-His2]-TRH 3 to 5 nM; 4-6 °C, 2.5 hours; mean ± S.E.M.

compound: NC(=O)[C@@H]1CCCN1C(=O)[C@H](Cc1c[nH]cn1)NC(=O)[C@@H]1CCC(=S)N1 [Example 1]
Ki [nM]: 31.9

compound: NC(=S)[C@@H]1CCCN1C(=O)[C@H](Cc1c[nH]cn1)NC(=O)[C@@H]1CCC(=O)N1 [Example 3]
Ki [nM]: 8

compound: NC(=O)[C@@H]1CCCN1C(=O)[C@H](Cc1c[nH]cn1)NC(=O)[C@@H]1CCC(=O)N1 [TRH, reference compound]
Ki [nM]: 24.1

compound: NC(=S)[C@@H]1CCCN1C(=O)[C@H](Cc1c[nH]cn1)NC(=O)[C@@H]1CCC(=S)N1 [Example 2]
Ki [nM]: 85.4
